- testTarget: Nuclear receptor subfamily 5 group A member 2 (Homo sapiens);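 note: HEK293T cells transfected with LRH-1 and a StAR promoter luciferase reporter; potency for inhibitors that lower LRH-1 driven reporter light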
- Sequence (O00482 whole entry): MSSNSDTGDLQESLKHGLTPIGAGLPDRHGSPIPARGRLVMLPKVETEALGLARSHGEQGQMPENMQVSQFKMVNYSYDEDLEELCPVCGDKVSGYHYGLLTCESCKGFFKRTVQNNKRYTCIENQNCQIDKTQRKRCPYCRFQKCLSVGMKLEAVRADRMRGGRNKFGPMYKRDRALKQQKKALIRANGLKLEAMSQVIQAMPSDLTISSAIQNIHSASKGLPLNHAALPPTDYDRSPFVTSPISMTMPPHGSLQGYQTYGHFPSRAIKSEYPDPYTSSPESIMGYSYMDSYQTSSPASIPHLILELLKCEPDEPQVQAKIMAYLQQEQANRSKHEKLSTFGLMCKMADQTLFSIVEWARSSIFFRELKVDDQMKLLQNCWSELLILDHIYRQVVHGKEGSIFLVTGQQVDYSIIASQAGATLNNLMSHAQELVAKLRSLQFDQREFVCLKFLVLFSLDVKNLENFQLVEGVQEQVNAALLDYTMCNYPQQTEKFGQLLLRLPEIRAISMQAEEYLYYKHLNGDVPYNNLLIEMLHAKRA
- Type: functional, cell-based
Activity calls are given as the source filed them.
recordedEndpoint: IC50

INSERT INTO results (compound, experimentalresult) VALUES
  ('N#Cc1cc([N+](=O)[O-])ccc1NC(=O)COC(=O)C1CCC(=O)N1 (centres undefined)', '6.37 µM (active)'),
  ('COC(=O)c1ccc(NC(=O)CSc2nncn2-c2cccnc2)cc1', '35.9 µM (inactive)'),
  ('NS(=O)(=O)c1ccc(O)c(NC(=O)c2ccc([N+](=O)[O-])o2)c1', '4.16 µM (active)'),
  ('COc1ccc(S(=O)(=O)N2CCN(CC(=O)Nc3ccc(C)c(F)c3)CC2)cc1', '6.16 µM (active)'),
  ('COCCn1c(C)cc(/C=C(\C#N)C(=O)OCC(=O)Nc2ccc(S(N)(=O)=O)cc2)c1C', '35.9 µM (inactive)');

IN: // query IC50 value for entry CCOc1ccc(NC(=O)CSc2nnc(C(C)C)n2CC)cc1
OUT: 35.9 µM (inactive)

IN: Please give the result for CC(O)(c1cccc(F)c1)c1nc(-c2ccc(S(C)(=O)=O)cc2)cs1 (centres undefined) too.
OUT: 10.3 µM (inactive)

IN: Also check O=C(Nc1nc2c(Cl)cccc2s1)c1ccc([N+](=O)[O-])o1
OUT: 0.148 µM (active)

IN: Further, for COc1ccc(C2(C)NC(=O)N(CC(=O)Nc3ccc(C)cc3Br)C2=O)cc1OC (centres undefined) ?
OUT: 35.9 µM (inactive)

###

As shown below, each of these molecules has a reported IC50 value.
- testTarget: Estrogen receptor beta (Homo sapiens);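 note: recombinant ER-beta bound to coactivator SRC1 peptide in presence of estradiol agonist; inhibitors block coactivator peptide binding and lower the FRET signal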
- Sequence (Q92731 whole entry): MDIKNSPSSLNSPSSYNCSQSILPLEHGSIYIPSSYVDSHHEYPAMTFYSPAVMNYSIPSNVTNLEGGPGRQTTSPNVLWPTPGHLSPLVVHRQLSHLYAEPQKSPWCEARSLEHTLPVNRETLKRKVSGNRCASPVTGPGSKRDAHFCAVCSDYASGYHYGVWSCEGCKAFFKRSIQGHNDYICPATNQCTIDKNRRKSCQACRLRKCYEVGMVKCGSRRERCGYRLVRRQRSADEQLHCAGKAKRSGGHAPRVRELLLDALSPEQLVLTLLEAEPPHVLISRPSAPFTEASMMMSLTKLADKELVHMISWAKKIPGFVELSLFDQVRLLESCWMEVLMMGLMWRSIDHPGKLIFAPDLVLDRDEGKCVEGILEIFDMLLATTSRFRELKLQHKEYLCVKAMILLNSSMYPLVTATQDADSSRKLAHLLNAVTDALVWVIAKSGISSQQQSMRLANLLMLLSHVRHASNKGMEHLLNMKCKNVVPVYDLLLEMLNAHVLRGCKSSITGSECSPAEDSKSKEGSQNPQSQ
Active and inactive are the calls of the source.

Here is how some molecules turned out for IC50.
INSERT INTO results (molecule, testtarget, recordedendpoint, experimentalresult) VALUES
  ('Cn1c(=O)[nH]c(=O)c2c1nc1n2CCCN1CCc1ccccc1', 'Estrogen receptor beta (Homo sapiens)', 'IC50', '> 50 µM (not active)'),
  ('O=C(c1cc2c(s1)CCC2)N1CCN(c2ccccc2)CC1', 'Estrogen receptor beta (Homo sapiens)', 'IC50', '3.87 µM (active)'),
  ('Cc1ccc(-n2c(SCc3cc(=O)n4ccsc4n3)nnc2-c2cccnc2)c(C)c1', 'Estrogen receptor beta (Homo sapiens)', 'IC50', '> 50 µM (not active)'),
  ('COc1ccc(C(C(=O)NC2CCCC2)N(C(=O)c2ccco2)c2ccc3c(c2)OCO3)cc1OC (stereo not drawn)', 'Estrogen receptor beta (Homo sapiens)', 'IC50', '> 50 µM (not active)'),
  ('O=C(Cc1cccs1)Nc1ccc(S(=O)(=O)Nc2ncccn2)cc1', 'Estrogen receptor beta (Homo sapiens)', 'IC50', '< 1.56 µM (active)');

IN: Fill blank: measured IC50 of the molecule Cc1noc(C)c1S(=O)(=O)N(CC(=O)O)c1ccc2c(c1)OCO2 is ____.
OUT: 9.71 µM (active)

IN: # repeat for CC(C)Cn1c(-c2cccs2)nc2ccccc21
OUT: > 50 µM (not active)

IN: Then what about the molecule CCCCOC(=O)c1c(C)oc2ccc(NS(=O)(=O)c3ccc4c5c(cccc35)C(=O)N4)cc12 ?
OUT: 13.5 µM (active)

###

# IC50 listing for each entry below
- testTarget: Hexokinase (Trypanosoma brucei)
- Sequence (Q38C41 whole entry): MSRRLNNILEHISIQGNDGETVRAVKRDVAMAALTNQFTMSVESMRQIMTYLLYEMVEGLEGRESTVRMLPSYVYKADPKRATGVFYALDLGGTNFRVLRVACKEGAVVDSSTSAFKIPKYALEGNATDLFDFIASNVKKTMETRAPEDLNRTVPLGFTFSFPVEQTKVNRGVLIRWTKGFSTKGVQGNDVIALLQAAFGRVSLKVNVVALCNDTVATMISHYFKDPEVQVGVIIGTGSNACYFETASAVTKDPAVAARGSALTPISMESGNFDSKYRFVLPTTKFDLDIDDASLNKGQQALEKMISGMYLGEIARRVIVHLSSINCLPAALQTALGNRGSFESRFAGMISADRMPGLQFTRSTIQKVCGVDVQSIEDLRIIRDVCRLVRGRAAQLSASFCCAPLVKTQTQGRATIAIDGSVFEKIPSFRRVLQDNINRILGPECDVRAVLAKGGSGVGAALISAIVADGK
- assayProtocol: Confirmation assay for inhibitors of Trypanosoma brucei hexokinase 1-Analogue-first series. [Related pubchem assays (depositor defined):AID1430, AID1632, AID2516, AID2560, AID2579, AID2600, AID449725, AID492951]
- Format: functional
Calls of active or inactive are those of the source.

Consider the following illustrative entries.
INSERT INTO measurements (testsmiles, recordedendpoint, experimentalresult) VALUES
  ('O=c1c(O)c(-c2ccc(O)c(O)c2)oc2cc(O)cc(O)c12', 'IC50', '22.4 µM (active)'),
  ('O=C(Nc1cc(Cl)ccc1C(=O)O)c1ccc(-c2ccccc2)cc1', 'IC50', '22.3 µM (active)'),
  ('Cc1ccc(-n2sc3cc(F)ccc3c2=O)c(C)c1', 'IC50', '4.77 µM (active)');

Here is the next item to consider.
IN: Can you look up the measured IC50 of O=C(Cn1sc2ccccc2c1=O)Nc1ccc(I)cc1 for me?
OUT: 14.8 µM (active)

###

- testTarget: Prothrombin (Homo sapiens, UniProt P00734)
- assayProtocol: Thrombin 1536 HTS Dose Response Confirmation. [Related pubchem assays: 1046 (Thrombin 1536 HTS; hits were confirmed in this assay)]
- Format: functional
Activity calls are given as the source filed them.
IC50 for assorted molecules

A selection of reference data follows.
INSERT INTO measurements (molecule, experimentalresult) VALUES
  ('CC(Sc1nncn1C)C(=O)NCc1ccc2c(c1)OCO2 (configuration not stated)', '> 50 µM (not active)'),
  ('CC1=C(C#N)C(=O)N(C)C(=O)/C1=N/Nc1ccc(S(N)(=O)=O)cc1', '> 50 µM (not active)'),
  ('Cc1nn(Cc2ccc(C(=O)Nc3nccs3)cc2)c(C)c1Cl', '> 50 µM (not active)'),
  ('Cc1c(N(C)C(=O)C2CCCN2S(=O)(=O)c2ccccc2)c(=O)n(-c2ccccc2)n1C (configuration not stated)', '> 50 µM (not active)'),
  ('Nc1cccc2c1C(=O)N(C(=O)c1ccco1)C2=O', '8.62 µM (active)');

IN: Tell me the measured IC50 of COc1ccc(C(=O)n2nc(-c3ccco3)nc2N)cc1OC , please.
OUT: 2.23 µM (active)

IN: Please do the same for Cc1ccc2nc(NC(=O)CSCC(=O)OCC(=O)c3ccc(Br)cc3)sc2c1 as well.
OUT: 0.0393 µM (active)

###

- testTarget: Homeodomain-interacting protein kinase 2 (Homo sapiens);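 note: measured within a kinome-wide kinase profiling panel, HIPK2 being one panel member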
- Sequence (Q9H2X6 whole entry): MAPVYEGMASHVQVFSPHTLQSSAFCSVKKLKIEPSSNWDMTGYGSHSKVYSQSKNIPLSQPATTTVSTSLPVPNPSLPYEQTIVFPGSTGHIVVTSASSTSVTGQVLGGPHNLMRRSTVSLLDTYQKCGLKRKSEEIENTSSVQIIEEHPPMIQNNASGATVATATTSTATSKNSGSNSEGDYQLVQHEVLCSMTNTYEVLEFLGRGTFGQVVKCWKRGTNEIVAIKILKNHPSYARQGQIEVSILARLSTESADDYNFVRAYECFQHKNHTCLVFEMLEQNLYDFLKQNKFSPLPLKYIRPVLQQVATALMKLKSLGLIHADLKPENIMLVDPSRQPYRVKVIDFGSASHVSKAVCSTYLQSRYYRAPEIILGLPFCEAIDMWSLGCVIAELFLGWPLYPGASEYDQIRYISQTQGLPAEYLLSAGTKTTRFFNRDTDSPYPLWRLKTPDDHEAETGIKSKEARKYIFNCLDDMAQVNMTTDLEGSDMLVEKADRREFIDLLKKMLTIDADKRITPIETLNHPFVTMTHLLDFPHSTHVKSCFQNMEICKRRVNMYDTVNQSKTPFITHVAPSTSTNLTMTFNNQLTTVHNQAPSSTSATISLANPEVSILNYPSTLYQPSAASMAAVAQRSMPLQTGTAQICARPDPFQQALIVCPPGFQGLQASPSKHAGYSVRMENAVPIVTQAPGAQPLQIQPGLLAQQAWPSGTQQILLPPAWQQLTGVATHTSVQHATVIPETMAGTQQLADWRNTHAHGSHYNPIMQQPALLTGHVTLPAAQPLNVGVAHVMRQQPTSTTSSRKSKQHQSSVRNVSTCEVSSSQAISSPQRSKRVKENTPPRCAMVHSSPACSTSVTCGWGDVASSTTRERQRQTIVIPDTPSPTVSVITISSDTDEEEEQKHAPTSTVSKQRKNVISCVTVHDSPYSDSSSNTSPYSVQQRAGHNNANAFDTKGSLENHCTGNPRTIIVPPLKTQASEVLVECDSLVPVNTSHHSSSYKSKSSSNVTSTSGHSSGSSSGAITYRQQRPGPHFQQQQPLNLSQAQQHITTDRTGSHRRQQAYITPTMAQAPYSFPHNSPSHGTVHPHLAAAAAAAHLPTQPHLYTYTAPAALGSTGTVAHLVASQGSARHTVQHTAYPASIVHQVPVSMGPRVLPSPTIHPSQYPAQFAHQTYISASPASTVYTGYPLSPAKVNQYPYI
- Assay type: functional
Calls of active or inactive are those of the source.
recordedEndpoint: Ki

INSERT INTO assay_data (testsmiles, experimentalresult) VALUES
  ('Fc1cccc(-c2c[nH]c3ncccc23)c1', '1000 nM (active)'),
  ('C=CCNc1cc(-c2c[nH]c3ncccc23)cc(Cl)n1', '50.1 nM (active)'),
  ('O=C1Nc2ccccc2Nc2cc(-c3ccncc3Cl)ccc21', '1260 nM (active)');

IN: Reported Ki, molecule CCCCOc1cc(-c2ccncc2)cc2[nH]nc(N)c12 : ____
OUT: 794 nM (active)

IN: Same lookup for CCOC(=O)c1c[nH]n2c(=O)cc(-c3ccncc3)nc12 , please.
OUT: 50.1 nM (active)

###

- testTarget: Mitogen-activated protein kinase 10 (Homo sapiens, UniProt P53779)
- Sequence (P53779 whole entry): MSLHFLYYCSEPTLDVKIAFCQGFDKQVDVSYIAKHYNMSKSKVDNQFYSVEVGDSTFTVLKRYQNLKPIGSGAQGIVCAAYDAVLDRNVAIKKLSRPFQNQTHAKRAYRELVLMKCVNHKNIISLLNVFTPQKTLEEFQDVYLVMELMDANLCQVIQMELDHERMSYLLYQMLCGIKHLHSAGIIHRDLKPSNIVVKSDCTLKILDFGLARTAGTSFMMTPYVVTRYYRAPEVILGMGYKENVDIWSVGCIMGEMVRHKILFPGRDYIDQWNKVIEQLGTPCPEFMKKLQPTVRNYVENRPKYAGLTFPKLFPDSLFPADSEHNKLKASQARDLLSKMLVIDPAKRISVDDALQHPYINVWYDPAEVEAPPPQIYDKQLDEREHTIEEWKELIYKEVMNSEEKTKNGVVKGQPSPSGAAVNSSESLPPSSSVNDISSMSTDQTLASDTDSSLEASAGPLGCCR
- assayProtocol: Dose response biochemical screening assay for inhibitors of c-Jun N-Terminal Kinase 3 (JNK3). [Related pubchem assays: 746 ]
Active and inactive are the calls of the source.
recordedEndpoint: IC50

These recorded examples may help you get a feel for the data.
INSERT INTO results (compound, experimentalresult) VALUES
  ('COc1cc(NC(=O)C2CC(c3cccc(OC)c3OC)=NO2)cc(OC)c1OC (centres undefined)', '4.19 µM (active)'),
  ('CCCN1C=CC(=C2C(=O)c3ccccc3C2=O)C=C1', '9.84 µM (active)'),
  ('Cc1ccccc1-n1nc(C)c2cc(C(=O)NCc3cccnc3)sc21', '10.6 µM (not active)');

Switching to the query record.
IN: Entry under review: Cc1ccc(C(=O)C2=C(O)C(=O)N(CCCn3ccnc3)C2c2ccc(OC(C)C)cc2)o1 (centres undefined) . Reported IC50?
OUT: 37.4 µM (not active)

###

- testTarget: Sentrin-specific protease 7 (Homo sapiens, UniProt Q9BQF6)
- Sequence (Q9BQF6 whole entry): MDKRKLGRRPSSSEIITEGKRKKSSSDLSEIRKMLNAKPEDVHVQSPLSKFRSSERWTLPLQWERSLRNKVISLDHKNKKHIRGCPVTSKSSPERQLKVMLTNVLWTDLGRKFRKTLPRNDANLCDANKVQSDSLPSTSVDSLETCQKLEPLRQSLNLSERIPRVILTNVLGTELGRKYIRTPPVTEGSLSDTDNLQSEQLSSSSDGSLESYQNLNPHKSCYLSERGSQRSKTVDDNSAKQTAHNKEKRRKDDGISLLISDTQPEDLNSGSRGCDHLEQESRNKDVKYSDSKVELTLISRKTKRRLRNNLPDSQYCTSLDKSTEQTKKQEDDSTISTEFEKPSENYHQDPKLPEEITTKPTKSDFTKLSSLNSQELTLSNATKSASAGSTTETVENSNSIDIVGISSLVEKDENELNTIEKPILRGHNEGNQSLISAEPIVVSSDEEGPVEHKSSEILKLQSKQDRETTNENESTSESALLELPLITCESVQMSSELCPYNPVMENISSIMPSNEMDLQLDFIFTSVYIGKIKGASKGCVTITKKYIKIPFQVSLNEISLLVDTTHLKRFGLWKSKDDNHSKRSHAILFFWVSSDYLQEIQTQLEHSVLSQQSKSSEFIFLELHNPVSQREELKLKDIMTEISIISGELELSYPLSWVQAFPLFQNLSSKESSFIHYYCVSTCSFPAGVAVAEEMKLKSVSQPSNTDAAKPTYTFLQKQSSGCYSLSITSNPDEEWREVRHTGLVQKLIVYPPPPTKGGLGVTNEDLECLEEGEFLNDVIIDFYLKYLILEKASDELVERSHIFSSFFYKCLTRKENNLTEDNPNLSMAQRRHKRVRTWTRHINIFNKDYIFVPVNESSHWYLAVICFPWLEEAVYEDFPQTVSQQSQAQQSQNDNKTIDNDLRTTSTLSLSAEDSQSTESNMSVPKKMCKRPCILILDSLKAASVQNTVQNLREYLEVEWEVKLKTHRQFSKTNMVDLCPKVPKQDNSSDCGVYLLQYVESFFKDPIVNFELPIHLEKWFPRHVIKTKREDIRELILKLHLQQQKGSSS
- assayProtocol: inhibition of human SENP7 cleavage activity – biochemical, luminescence, SAR follow-up (AID 504497)
- Format: functional
Activity calls are given as the source filed them.
Respond only with the outcome that fits, drawn from active, inactive

Example entries begin here.
INSERT INTO assay_data (testsmiles, testtarget, grouplabel) VALUES
  ('COc1cc2cc(NC(C)=O)cc(NCc3ccccc3)c2cc1OC', 'Sentrin-specific protease 7 (Homo sapiens, UniProt Q9BQF6)', 'active'),
  ('CN(C)c1cc(N/N=C\c2ccccc2)nc(N(C)C)n1', 'Sentrin-specific protease 7 (Homo sapiens, UniProt Q9BQF6)', 'active'),
  ('Cc1cc(Cl)ccc1NC(=O)c1ccc2c(c1)OCO2', 'Sentrin-specific protease 7 (Homo sapiens, UniProt Q9BQF6)', 'active');

Below: the item to evaluate.
IN: Test call for this molecule, please: Oc1nnc(/C=C/c2ccc(F)cc2)o1
OUT: inactive
